The following binders are shown together with reported RLU values.
Target: T1, human apical domain of CD71 (human, UniProt P02786 189-383, limits assumed)
T1 construct: domain: apical domain
T1 sequence (P02786 189-383 limits assumed): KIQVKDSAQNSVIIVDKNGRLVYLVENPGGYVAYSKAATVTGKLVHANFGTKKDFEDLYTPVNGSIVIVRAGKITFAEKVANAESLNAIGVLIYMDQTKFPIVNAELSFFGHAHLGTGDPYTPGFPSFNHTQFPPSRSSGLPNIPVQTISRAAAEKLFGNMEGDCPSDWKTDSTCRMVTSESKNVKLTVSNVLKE
Assay: primary ELISA; also: test concentration or dose not given here

binder: CD71-binding FN3 domain SEQ ID NO 377 (designed binder) MLPAPKNLVVSRVTEDSARLSWTAPDAAFDSFFIGYLEPQPPGEAIQLWVPGSERSYDLTGLKPGTEYNVTIQGVKGGFPSTPLQALFTT
RLU: 3.43e+06 RLU

binder: CD71-binding FN3 domain SEQ ID NO 359 (designed binder) MLPAPKNLVVSRVTEDSARLSWTAPDAAFDSFLIPYAETSPSGEAIVLTVPGSERSYDLTGLKPGTEYSVLIHGVKGGDYSSPLSAIFTT
RLU: 6.97e+06 RLU

binder: CD71-binding FN3 domain SEQ ID NO 384 (designed binder) MLPAPKNLVVSRVTEDSARLSWTAPDAAFDSFEIDYAENRHHGEAIALLVPGSERSYDLTGLKPGTEYIVFIGGVKGGRWSQPLVASFTT
RLU: 5.55e+06 RLU

According to the records, this binder CD71-binding FN3 domain SEQ ID NO 357 (designed binder) MLPAPKNLVVSRVTEDSARLSWTAPDAAFDSFFIGYLEPQPPGEAIGLFVPGSERSYDLTGLKPGTEYNVTIQGVKGGFPSDPLVAYFTT displays RLU of 6.34e+06 RLU
